Tested on: polyclonal antibody of the thiamethoxam immunoassay
procedure.details: Cross reactivity of the thiamethoxam immunoassay (competitive enzyme immunoassay in antibody-coated tubes)
Type: binding
Design: key: NR, non-reactive
condition.set: test substances in 1% methanol/water, 1000 to 0.01 ng/ml
measured.endpoint: Percent Reactivity Relative to Thiamethoxam

Below, 8 molecules whose answers are already recorded.
Value wanted: Percent Reactivity Relative to Thiamethoxam (polyclonal antibody of the thiamethoxam immunoassay) of entry COCC(=O)N(c1c(C)cccc1C)[C@H](C)C(=O)OC [Mefenoxam (R-Metalaxyl), Mefenoxam]
NR

Record CCCCC(C#N)(Cn1cncn1)c1ccc(Cl)cc1 (stereo not shown) : what is its Percent Reactivity Relative to Thiamethoxam with polyclonal antibody of the thiamethoxam immunoassay?
NR

Lookup: Percent Reactivity Relative to Thiamethoxam / polyclonal antibody of the thiamethoxam immunoassay / CN1COCN(Cc2cnc(Cl)s2)/C1=N\[N+](=O)[O-]
100%

polyclonal antibody of the thiamethoxam immunoassay / Percent Reactivity Relative to Thiamethoxam / O=[N+]([O-])NC1=NCCN1Cc1ccc(Cl)nc1 : value?
^2NR

Request: Percent Reactivity Relative to Thiamethoxam, test system polyclonal antibody of the thiamethoxam immunoassay, entry CC1COC(Cn2cncn2)(c2ccc(Oc3ccc(Cl)cc3)cc2Cl)O1 (stereo not shown)
NR

I'm curious: which Percent Reactivity Relative to Thiamethoxam was measured for CCN(CC)c1nc(C)cc(OP(=S)(OC)OC)n1 tested on polyclonal antibody of the thiamethoxam immunoassay?
NR

Any idea what Percent Reactivity Relative to Thiamethoxam came out for CC1=C(C(=O)Nc2ccccc2)SCCO1 on polyclonal antibody of the thiamethoxam immunoassay?
NR

Recall the recorded Percent Reactivity Relative to Thiamethoxam for O=[N+]([O-])c1c(Cl)c(Cl)c(Cl)c(Cl)c1Cl with polyclonal antibody of the thiamethoxam immunoassay and state it.
NR

Continuing:
Entry N#Cc1c[nH]cc1-c1cccc2c1OC(F)(F)O2 , system polyclonal antibody of the thiamethoxam immunoassay: what Percent Reactivity Relative to Thiamethoxam was measured?
NR

Recall the recorded Percent Reactivity Relative to Thiamethoxam for COCC(=O)N(c1c(C)cccc1C)C(C)C(=O)OC (stereo not shown) [Metalaxyl] with polyclonal antibody of the thiamethoxam immunoassay and state it.
NR
